Test: Solubility in water
Assay type: physicochemical
Settings: Table 5, sarcosine substitution peptides
Square brackets hold non-standard residues; d marks the D form. Peptide text beside a SMILES is read from it. Sar = CNCC(=O)O

# MOLECULE, Solubility in water
rows = [
    ("CC[C@H](C)[C@H](N)C(=O)N[C@@H](C)C(=O)N(C)CC(=O)N[C@H](C(=O)N[C@@H](CC(C)C)C(=O)N[C@@H](CCC(=O)O)C(=O)N1CCC[C@H]1C(=O)N[C@H](C(=O)N[C@@H](CS)C(=O)N[C@@H](CS)C(=O)N[C@@H](CCC(N)=O)C(=O)N[C@@H](CCC(=O)O)C(=O)N[C@@H](CCCNC(=N)N)C(=O)N[C@@H](C)C(=O)N[C@@H](C)C(=O)O)[C@@H](C)CC)[C@@H](C)CC [PA-L3Sar] (H-IA[Sar]ILEPICCQERAA-OH; N-terminus and C-terminus assumed)", "Yes"),
    ("CC[C@H](C)[C@H](N)C(=O)N[C@@H](C)C(=O)N[C@@H](CC(C)C)C(=O)N[C@H](C(=O)N[C@@H](CC(C)C)C(=O)N(C)CC(=O)N1CCC[C@H]1C(=O)N[C@H](C(=O)N[C@@H](CS)C(=O)N[C@@H](CS)C(=O)N[C@@H](CCC(N)=O)C(=O)N[C@@H](CCC(=O)O)C(=O)N[C@@H](CCCNC(=N)N)C(=O)N[C@@H](C)C(=O)N[C@@H](C)C(=O)O)[C@@H](C)CC)[C@@H](C)CC [PA-E6Sar]", "No"),
]

---

Assay: Solubility in water
Format: physicochemical
Conditions: Table 7, PEGylated and sarcosine/alanine substitution peptides
Square brackets hold non-standard residues; d marks the D form. Peptide text beside a SMILES is read from it. Sar = CNCC(=O)O
PROPERTY_MEASURED: Solubility in water

# COMPOUND, PROPERTY_MEASURED, OBSERVED
data = [
    ("CC[C@H](C)[C@H](N)C(=O)N[C@@H](C)C(=O)N[C@@H](CC(C)C)C(=O)N[C@H](C(=O)N[C@@H](CC(C)C)C(=O)N[C@@H](CCC(=O)O)C(=O)N(C)CC(=O)N[C@H](C(=O)N[C@@H](CS)C(=O)N[C@@H](CS)C(=O)N(C)CC(=O)N[C@@H](CCC(=O)O)C(=O)N[C@@H](CCCNC(=N)N)C(=O)N[C@@H](C)C(=O)N[C@@H](C)C(=O)O)[C@@H](C)CC)[C@@H](C)CC [Peptide Q11SarP7Sar, IALILE(Sar)ICC(Sar)ERAA] (H-IALILE[Sar]ICC[Sar]ERAA-OH; N-terminus and C-terminus assumed)", "Solubility in water", "Yes"),
]

---

Experiment: Solubility in water
Type: physicochemical
Settings: Table 7, PEGylated and sarcosine/alanine substitution peptides
Square brackets hold non-standard residues; d marks the D form. Peptide text beside a SMILES is read from it. Sar = CNCC(=O)O

# COMPOUND, Solubility in water
records = [
    ("CC[C@H](C)[C@H](N)C(=O)N[C@@H](C)C(=O)N[C@@H](CC(C)C)C(=O)N[C@H](C(=O)N[C@@H](CC(C)C)C(=O)N[C@@H](CCC(=O)O)C(=O)N1CCC[C@H]1C(=O)N[C@H](C(=O)N(C)CC(=O)N[C@@H](CCC(N)=O)C(=O)N[C@@H](CCC(=O)O)C(=O)N[C@@H](CCCNC(=N)N)C(=O)N[C@@H](C)C(=O)N[C@@H](C)C(=O)O)[C@@H](C)CC)[C@@H](C)CC [PA-C9SarD10] (H-IALILEPI[Sar]QERAA-OH)", "Yes"),
    ("CC[C@H](C)[C@H](N)C(=O)N[C@@H](C)C(=O)N[C@@H](CC(C)C)C(=O)N[C@H](C(=O)N[C@@H](CC(C)C)C(=O)N[C@@H](CCC(=O)O)C(=O)N1CCC[C@H]1C(=O)N[C@H](C(=O)N(C)CC(=O)N[C@@H](CS)C(=O)N[C@@H](CCC(N)=O)C(=O)N[C@@H](CCC(=O)O)C(=O)N[C@@H](CCCNC(=N)N)C(=O)N(C)CC(=O)N[C@@H](C)C(=O)O)[C@@H](C)CC)[C@@H](C)CC [Peptide A14SarC9Sar] (H-IALILEPI[Sar]CQER[Sar]A-OH)", "No"),
]
